Entry source: patent US11034672B1

Give IC50 for every item shown.
target: EGFR WT (Homo sapiens); experiment: Activity for inhibiting EGFR (Table A), EGFR WT; assay type: cell-based; conditions: read-out: EGFR WT, potency code (IC50)
Sequence (P00533 25-1210 N540K): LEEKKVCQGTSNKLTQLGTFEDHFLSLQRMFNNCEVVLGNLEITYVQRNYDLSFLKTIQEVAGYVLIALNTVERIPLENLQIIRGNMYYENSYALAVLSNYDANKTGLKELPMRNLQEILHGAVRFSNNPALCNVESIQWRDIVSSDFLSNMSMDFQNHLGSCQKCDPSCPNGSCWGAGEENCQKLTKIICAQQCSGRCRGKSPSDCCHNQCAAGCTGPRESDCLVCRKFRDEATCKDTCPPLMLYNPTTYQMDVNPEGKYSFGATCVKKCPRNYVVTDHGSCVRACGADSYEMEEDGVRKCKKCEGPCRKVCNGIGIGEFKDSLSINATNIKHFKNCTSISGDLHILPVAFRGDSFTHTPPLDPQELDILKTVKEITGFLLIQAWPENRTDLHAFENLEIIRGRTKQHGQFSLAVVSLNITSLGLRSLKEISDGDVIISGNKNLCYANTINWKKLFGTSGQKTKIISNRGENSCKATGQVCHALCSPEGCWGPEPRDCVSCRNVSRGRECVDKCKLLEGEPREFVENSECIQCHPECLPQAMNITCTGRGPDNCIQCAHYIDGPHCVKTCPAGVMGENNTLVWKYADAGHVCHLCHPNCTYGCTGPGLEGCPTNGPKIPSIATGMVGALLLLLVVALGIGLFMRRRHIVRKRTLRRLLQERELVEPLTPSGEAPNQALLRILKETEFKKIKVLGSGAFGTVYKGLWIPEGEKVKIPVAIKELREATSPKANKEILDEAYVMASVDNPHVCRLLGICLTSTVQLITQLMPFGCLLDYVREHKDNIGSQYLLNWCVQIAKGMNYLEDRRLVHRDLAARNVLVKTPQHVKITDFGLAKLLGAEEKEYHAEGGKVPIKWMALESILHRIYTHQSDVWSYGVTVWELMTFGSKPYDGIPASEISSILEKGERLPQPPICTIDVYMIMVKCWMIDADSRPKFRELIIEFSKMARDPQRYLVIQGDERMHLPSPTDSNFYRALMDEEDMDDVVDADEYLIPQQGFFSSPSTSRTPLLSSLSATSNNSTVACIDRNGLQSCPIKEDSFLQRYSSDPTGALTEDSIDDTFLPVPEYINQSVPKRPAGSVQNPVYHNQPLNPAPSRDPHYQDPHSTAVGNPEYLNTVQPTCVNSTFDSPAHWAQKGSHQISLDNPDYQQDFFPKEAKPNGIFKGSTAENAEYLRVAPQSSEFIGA

CC#CC(=O)Nc1cc2c(Nc3ccc(OCc4cnccn4)c(Cl)c3)ncnc2cc1OCCCN1CCOCC1	0.2 to 0.3 µM

Please report IC50 for every entry that follows.
1. C=CC(=O)Nc1cc2c(Nc3ccc(OCc4cccc(F)n4)c(Cl)c3)ncnc2cc1OCCCN1CC(OC)C1
2. C=CC(=O)Nc1cc2c(Nc3ccc(Oc4ccccc4)cc3)ncnc2cc1C#C[C@@H]1[C@H]2CN(C)C[C@@H]12

stdout:
1: 0.3 to 0.5 µM; 2: 0.1 to 0.2 µM

====

Give pIC50 for every item shown.
target: HER2 YVMA (Homo sapiens, UniProt P04626, INS775YVMA); construct: expressed in transfected cells; host or cells: BaF3 (murine pro-B); experiment: BaF3 cell proliferation assay, HER2 YVMA (Table B); type: cell-based; settings: potency code, 3 days, CellTiterGlo, read-out: HER2 YVMA (Activity for Inhibiting HER2)
Sequence (P04626 with tags, fused parts or gaps INS775YVMA): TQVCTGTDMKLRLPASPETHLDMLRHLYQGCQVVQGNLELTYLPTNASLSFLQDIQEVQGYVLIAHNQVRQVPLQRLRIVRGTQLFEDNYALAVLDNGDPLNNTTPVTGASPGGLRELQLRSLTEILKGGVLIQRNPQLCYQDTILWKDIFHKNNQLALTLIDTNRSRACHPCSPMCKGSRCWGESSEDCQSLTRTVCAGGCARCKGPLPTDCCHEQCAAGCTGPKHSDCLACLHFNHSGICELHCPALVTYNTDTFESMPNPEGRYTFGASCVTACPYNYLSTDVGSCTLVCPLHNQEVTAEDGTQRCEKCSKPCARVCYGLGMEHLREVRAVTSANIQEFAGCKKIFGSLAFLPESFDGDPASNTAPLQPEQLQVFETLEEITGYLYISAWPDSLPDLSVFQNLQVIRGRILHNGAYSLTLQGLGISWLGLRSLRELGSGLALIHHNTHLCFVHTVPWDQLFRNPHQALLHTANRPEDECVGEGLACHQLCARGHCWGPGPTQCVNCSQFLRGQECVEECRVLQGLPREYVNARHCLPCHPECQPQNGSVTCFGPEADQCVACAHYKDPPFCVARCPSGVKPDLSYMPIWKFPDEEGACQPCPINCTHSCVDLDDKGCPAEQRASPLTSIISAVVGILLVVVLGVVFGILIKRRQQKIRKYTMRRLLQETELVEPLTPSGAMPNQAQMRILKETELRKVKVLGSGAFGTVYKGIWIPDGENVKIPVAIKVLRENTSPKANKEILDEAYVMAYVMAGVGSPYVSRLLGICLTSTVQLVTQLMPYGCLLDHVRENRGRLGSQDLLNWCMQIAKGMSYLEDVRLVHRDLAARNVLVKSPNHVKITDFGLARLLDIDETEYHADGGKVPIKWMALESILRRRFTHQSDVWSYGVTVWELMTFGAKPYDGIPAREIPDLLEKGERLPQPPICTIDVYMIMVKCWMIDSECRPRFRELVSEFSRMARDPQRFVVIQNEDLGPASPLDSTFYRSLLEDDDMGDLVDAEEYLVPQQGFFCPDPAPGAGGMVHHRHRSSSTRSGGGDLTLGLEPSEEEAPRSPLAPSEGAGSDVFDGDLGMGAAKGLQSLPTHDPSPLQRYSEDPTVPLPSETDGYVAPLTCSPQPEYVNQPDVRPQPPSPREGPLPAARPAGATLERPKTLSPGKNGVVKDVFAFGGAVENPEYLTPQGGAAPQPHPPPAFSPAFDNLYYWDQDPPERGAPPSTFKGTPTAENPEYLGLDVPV
pIC50: −log10 of the molar value.

C=CC(=O)Nc1cc2c(Nc3ccc(OCc4ccccn4)c(Cl)c3)ncnc2cc1OC1CCN(C)C1 (stereo not shown)	7.30 to 7.52
C=CC(=O)Nc1cc2c(Nc3ccc(OCc4ccccn4)c(Cl)c3)ncnc2cc1OCCN1CC2CCC(C1)O2	7.30 to 7.52
C=CC(=O)Nc1cc2c(Nc3ccc(OCc4cccc(F)n4)c(Cl)c3)ncnc2cc1OCCN1CCN(C)CC1	6.70 to 7.00
C=CC(=O)Nc1cc2c(Nc3cc(Cl)c(OCc4cccc(F)c4)cc3F)ncnc2cc1O[C@@H]1CCN(C)C1	6.00 to 6.30
C=CC(=O)Nc1cc2c(Nc3cc(C)c(OCc4ccccn4)cc3F)ncnc2cc1OCCN1CCOCC1	6.30 to 6.52

Please report pIC50 for every entry that follows.
1. C=CC(=O)Nc1cc2c(Nc3ccc(OCc4cccc(F)c4)c(Cl)c3)ncnc2cc1OCCN1CC(OC)C1
2. C=CC(=O)Nc1cc2c(Nc3ccc(OCc4ccccn4)c(Cl)c3)ncnc2cc1C#CC1CC2(C1)CN(C)C2

stdout:
1. 6.70 to 7.00
2. 6.70 to 7.00

====

biological target: HER2 YVMA (Homo sapiens, UniProt P04626, INS775YVMA); construct: expressed in transfected cells; host or cells: BaF3 (murine pro-B); assay: Activity for inhibiting HER2 (Table B), HER2 YVMA; assay type: cell-based; conditions: read-out: HER2 YVMA, potency code (IC50)
RESULT_TYPE: IC50

C=CC(=O)Nc1cc2c(Nc3ccc(OCc4ccccn4)c(Cl)c3)ncnc2cc1OCC1CCN1C (centres unmarked)	200 to 300 nM
C=CC(=O)Nc1cc2c(Nc3ccc(OCc4ccccn4)c(Cl)c3)ncnc2cc1OCCN1CC2(COC2)C1	50 to 100 nM
C=CC(=O)Nc1cc2c(Nc3ccc(OCc4ccccn4)c(Cl)c3)ncnc2cc1OCCN1CCS(=O)(=O)CC1	> 1000 nM
C=CC(=O)Nc1cc2c(Nc3ccc(OCc4cccc(C)n4)c(Cl)c3)ncnc2cc1OCCN1CC2CCC(C1)O2	500 to 1000 nM
C=CC(=O)Nc1cc2c(Nc3ccc(Oc4ccccc4)cc3)ncnc2cc1OCCN1CCOCC1	300 to 500 nM
C=CC(=O)Nc1cc2c(Nc3ccc(Oc4ccc(C)nc4)c(C)c3)ncnc2cc1OC1CCN(C)C1 (centres unmarked)	300 to 500 nM
C=CC(=O)Nc1cc2c(Nc3ccc(OCc4ccccn4)c(Cl)c3)ncnc2cc1O[C@H]1CCCN(C)CC1	200 to 300 nM
C=CC(=O)Nc1cc2c(Nc3ccc(OCc4ccccn4)c(Cl)c3)ncnc2cc1C#CC1CC2(C1)CN(C)C2	100 to 200 nM

Please report IC50 for every entry that follows.
1. C=CC(=O)Nc1cc2c(Nc3ccc(OCc4cccnn4)c(Cl)c3)ncnc2cc1OCCN1CCN(C)CC1
2. C=CC(=O)Nc1cc2c(Nc3ccc(OCc4ccccn4)c(Cl)c3)ncnc2cc1OCCN1CC2COCC2C1 (centres unmarked)
3. C=CC(=O)Nc1cc2c(Nc3ccc(OCc4ccccn4)c(Cl)c3)ncnc2cc1OCC1CCCN1 (centres unmarked)
4. C=CC(=O)Nc1cc2c(Nc3ccc(OCc4ccccn4)c(Cl)c3)ncnc2cc1C#CC(C)(C)N1CCN(C)CC1

stdout:
300 to 500 nM
50 to 100 nM
300 to 500 nM
50 to 100 nM

Please report IC50 for every entry that follows.
1. C=CC(=O)Nc1cc2c(Nc3ccc(OCc4ccccn4)c(Cl)c3)ncnc2cc1OCC[C@H]1CCCN1C
2. C=CC(=O)Nc1cc2c(Nc3ccc(OCc4ccccn4)c(Cl)c3)ncnc2cc1OCCCN1CC(OC)C1
3. C=CC(=O)Nc1cc2c(Nc3ccc(OCc4ccccn4)c(Cl)c3)ncnc2cc1OCCN1CC2(CCO2)C1
4. C=CC(=O)Nc1cc2c(Nc3ccc(OCc4ccccn4)c(Cl)c3)ncnc2cc1OC1CN(C)C1
5. CC#CC(=O)Nc1cc2c(Nc3ccc(OCc4ccncn4)c(Cl)c3)ncnc2cc1OCCCN1CCOCC1
6. C=CC(=O)Nc1cc2c(Nc3ccc(OCc4ccccn4)c(Cl)c3)ncnc2cc1OCCCN1CCN(C)CC1

stdout:
1. 30 to 50 nM
2. 20 to 30 nM
3. 100 to 200 nM
4. 50 to 100 nM
5. 100 to 200 nM
6. 20 to 30 nM

Please report IC50 for every entry that follows.
1. C=CC(=O)Nc1cc2c(Nc3ccc(OCc4ccccn4)nc3)ncnc2cc1O[C@@H]1CCN(C)C1
2. C=CC(=O)Nc1cc2c(Nc3ccc(OCc4cccc(C)n4)c(Cl)c3)ncnc2cc1OCCN1CCN(C)CC1
3. CC#CC(=O)Nc1cc2c(Nc3cc(Cl)c(OCc4cccc(F)c4)cc3F)ncnc2cc1OCCN1CCN(C)CC1
4. C=CC(=O)Nc1cc2c(Nc3ccc(OCc4ccccn4)c(Cl)c3)ncnc2cc1OCCN1CCN(C)CC1
5. C=CC(=O)Nc1cc2c(Nc3ccc(OCc4ccccn4)c(Cl)c3)ncnc2cc1OCCN1CCC(OC)C1 (centres unmarked)
6. C=CC(=O)Nc1cc2c(Nc3ccc(OCc4ccccn4)c(Cl)c3)ncnc2cc1C#CC1[C@H]2CNC[C@@H]12 (some centres unmarked)
7. C=CC(=O)Nc1cc2c(Nc3ccc(OCc4ccccn4)c(Cl)c3)ncnc2cc1OC1CCN(C)C1 (centres unmarked)
8. C=CC(=O)Nc1cc2c(Nc3ccc(OCc4ccccn4)c(Cl)c3)ncnc2cc1C#C[C@@H]1[C@H]2CN(C)C[C@@H]12

stdout:
> 1000 nM
300 to 500 nM
50 to 100 nM
20 to 30 nM
50 to 100 nM
100 to 200 nM
30 to 50 nM
30 to 50 nM

====

biological target: HER2 S310F (Homo sapiens, UniProt P04626, S310F); construct: expressed in transfected cells; host or cells: BaF3 (murine pro-B); test: BaF3 cell proliferation assay, HER2 S310F (Table B); assay type: cell-based; conditions: potency code, 3 days, CellTiterGlo, read-out: HER2 S310F (Activity for Inhibiting HER2)
Sequence (P04626 23-1255 S310F): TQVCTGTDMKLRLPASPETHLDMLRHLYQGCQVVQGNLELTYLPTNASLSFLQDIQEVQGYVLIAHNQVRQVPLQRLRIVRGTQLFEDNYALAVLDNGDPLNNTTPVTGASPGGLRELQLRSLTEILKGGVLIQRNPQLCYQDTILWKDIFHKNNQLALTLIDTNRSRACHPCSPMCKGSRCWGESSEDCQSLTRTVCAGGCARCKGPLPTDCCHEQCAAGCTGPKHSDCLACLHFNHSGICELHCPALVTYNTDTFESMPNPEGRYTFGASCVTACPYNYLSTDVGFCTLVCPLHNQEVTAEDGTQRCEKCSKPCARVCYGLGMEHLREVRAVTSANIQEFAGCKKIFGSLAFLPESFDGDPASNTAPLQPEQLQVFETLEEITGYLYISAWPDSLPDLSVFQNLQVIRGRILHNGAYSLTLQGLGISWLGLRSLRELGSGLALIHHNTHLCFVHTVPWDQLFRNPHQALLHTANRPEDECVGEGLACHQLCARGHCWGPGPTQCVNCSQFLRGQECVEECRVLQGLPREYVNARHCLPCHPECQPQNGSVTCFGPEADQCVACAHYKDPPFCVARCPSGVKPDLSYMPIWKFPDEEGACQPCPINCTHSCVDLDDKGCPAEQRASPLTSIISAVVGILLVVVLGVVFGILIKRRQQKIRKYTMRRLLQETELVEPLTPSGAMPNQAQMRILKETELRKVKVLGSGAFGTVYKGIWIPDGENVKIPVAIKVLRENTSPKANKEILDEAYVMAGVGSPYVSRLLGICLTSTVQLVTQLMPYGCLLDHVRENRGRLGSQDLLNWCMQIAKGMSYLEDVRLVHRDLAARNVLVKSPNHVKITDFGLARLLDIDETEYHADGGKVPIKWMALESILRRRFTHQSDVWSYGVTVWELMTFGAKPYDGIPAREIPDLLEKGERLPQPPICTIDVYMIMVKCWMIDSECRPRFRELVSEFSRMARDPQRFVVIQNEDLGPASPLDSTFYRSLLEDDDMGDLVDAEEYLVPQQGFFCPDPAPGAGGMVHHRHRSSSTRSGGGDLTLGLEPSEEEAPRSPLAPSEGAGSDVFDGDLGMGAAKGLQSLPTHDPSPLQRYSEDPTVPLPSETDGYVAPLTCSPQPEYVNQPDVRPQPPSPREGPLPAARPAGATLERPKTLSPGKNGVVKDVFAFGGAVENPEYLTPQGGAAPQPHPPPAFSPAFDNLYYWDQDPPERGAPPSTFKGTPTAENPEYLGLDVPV
pIC50: −log10 of the molar value.
Give pIC50 for every item shown.

Field: example entries. Status: answers known.
COC/C=C/C(=O)Nc1cc2c(Nc3ccc(OCc4ccccn4)c(Cl)c3)ncnc2cc1OCCN1CCOCC1 [compound 112]	6.30 to 6.52
C=CC(=O)Nc1cc2c(Nc3ccc(OCc4ccccn4)c(Cl)c3)ncnc2cc1OCCN1CC2(CCO2)C1 [compound 52]	7.52 to 7.70
C=CC(=O)Nc1cc2c(Nc3ccc(OCc4cccc(F)c4)c(Cl)c3)ncnc2cc1OCCN1CCOCC1 [compound 27]	7.52 to 7.70
CC#CC(=O)Nc1cc2c(Nc3ccc(OCc4ccncn4)c(Cl)c3)ncnc2cc1OCCCN1CCOCC1 [compound 164]	7.30 to 7.52
C=CC(=O)Nc1cc2c(Nc3ccc(OCc4ccccn4)c(Cl)c3)ncnc2cc1O[C@@H]1CCN(C)C1 [compound 17]	8.00 to 8.30

Please report pIC50 for every entry that follows.
1. C=CC(=O)Nc1cc2c(Nc3ccc(OCc4ccccn4)c(Cl)c3)ncnc2cc1O[C@H]1CCN(C)C1 [compound 18]
2. C=CC(=O)Nc1cc2c(Nc3ccc(OCc4ccccn4)c(Cl)c3)ncnc2cc1N1CC2(CN(C)C2)C1 [compound 45]
3. C=CC(=O)Nc1cc2c(Nc3ccc(OCc4ccccn4)c(Cl)c3)ncnc2cc1OCCN1CC2(CN(C)C2)C1 [compound 119]
4. C=CC(=O)Nc1cc2c(Nc3ccc(OCc4ccccn4)c(Cl)c3)ncnc2cc1OCCCN1CCCC1 [compound 22]
5. C=CC(=O)Nc1cc2c(Nc3ccc(OCc4cnccn4)c(Cl)c3)ncnc2cc1OCCN1CCOCC1 [compound 176]

stdout:
1: 7.52 to 7.70; 2: 6.30 to 6.52; 3: 7.00 to 7.30; 4: 8.00 to 8.30; 5: 7.52 to 7.70
